- test: chemical genetic growth profiling, strain panel (AID 1159580);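 further: tested at 20 µM; growth read once vehicle control cultures reached saturation at 30 °C; 1 = growth at the plate median or of vehicle wells; lower values mean less growth of the strain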
- setupConditions: S. cerevisiae deletion strains, growth OD, strain TSCII, hits give low values
Out of some 5,500 compounds screened, about 2,000 (36%) were called active. About 18% were inconclusive and are not listed. This is one part of the list.
normalized growth values for the compounds below.
Reply: number alone, nothing else.

• O=C1Nc2ccccc2/C1=C\c1cccc([N+](=O)[O-])c1 = 0.963
• COc1ccc(/C=C2/C(=O)Nc3ccccc32)cc1 = 0.863
• COCCCNC(=S)N/N=C\c1cc(Br)ccc1O = 0.964
• CCOC(=O)N/N=C\c1cc(Cl)cc(Cl)c1O = 0.952

// query Answer with the recorded normalized growth for the compound listed here: O=C(NNc1ccc(F)cc1F)c1sccc1Cl
// result 0.97

Just for reference, PubChem BioAssay AID1159580 is where these values come from.
